Assay: Quantitative High-Throughput drug screen in 47 multiple myeloma cell lines against the NCATS MIPE library collection: KMS27_JCRB cell viability assay (AID 1918970); note: nearly all actives have a fitted effect of over 30% in size
Conditions: KMS27 myeloma cells, CellTiter-Glo ATP viability, 48 h
Results filed as inconclusive are left out. Calls of active or inactive are those of the source. Calls come from the whole dose curve; as a rule, active = well fitted cell-killing curve with a large enough effect; inconclusive = small, poorly fitted or top-dose-only effect, or effect the other way; inactive = no such curve, though single readings can be large or run the other way.
One label from this list, please: yes (1) = active, no (0) = inactive

Use the examples below as a reference point.
compound=CCOC(=O)N1c2ccc(C(F)(F)F)cc2[C@@H](N(Cc2cc(C(F)(F)F)cc(C(F)(F)F)c2)C(=O)OC)C[C@H]1CC assigned_category="no (0)"
compound=C=C1[C@H](n2cnc3c(=O)[nH]c(N)nc32)C[C@H](O)[C@H]1CO assigned_category="yes (1)"
compound=N#Cc1ccc(Oc2ccc3c(c2)COB3O)cc1 assigned_category="yes (1)"
compound="N#CC(c1ccnc(NCCc2cccnc2)n1)c1nc2ccccc2s1 (stereo unspecified)" assigned_category="yes (1)"
compound=CCC(=O)NCC[C@@H]1CCc2ccc3c(c21)CCO3 assigned_category="no (0)"

Status in this test for CN1CCN2c3ncccc3Cc3ccccc3C2C1 (stereo unspecified) ?
yes (1)

// param item: COc1ccc2c(c1)c(C1=C(c3c[nH]c4ccccc34)C(=O)NC1=O)cn2CCCN(C)C ; yields the recorded call
yes (1)

In this assay, the call recorded for CCOC(=O)[C@@H](N)CCC(=O)N[C@@H](CSCc1ccccc1)C(=O)N[C@@H](C(=O)OCC)c1ccccc1 was what?
yes (1)

---

Tested on: HaCat
Test: Cytotoxic Profiling of Annotated Libraries Using Quantitative High-Throughput Screening (AID 1296008); note: nearly all actives have a fitted effect of over 60% in size
Conditions: Five cell lines viability, CellTiter-Glo ATP luminescence, 48-72 h
Results filed as inconclusive are left out. Active and inactive are the calls of the source. Calls follow the shape of the dose curve; as a rule, active = well fitted inhibition curve with a large enough effect; inconclusive = small, poorly fitted or top-dose-only effect; inactive = flat fitted curve, though single readings scatter.
Reply using exactly one outcome from T for active, F for inactive

The following compounds have reported results that may help.
compound=Nc1ncnc2c1ncn2[C@@H]1O[C@H](CO)[C@@H](O)[C@@H]1O assigned_category=F
compound=O=C(Nc1ccccc1)Nc1ccc(-c2ccc(C(=O)[C@H]3CCC[C@H]3C(=O)O)cc2)cc1 assigned_category=F
compound=CN(C)c1ccccc1CN1CCCN(Cc2ccccc2N(C)C)C1c1ccncc1 assigned_category=F
compound=CN[C@@H]1[C@@H](O)[C@@H](O[C@@H]2[C@@H](O)[C@H](O[C@H]3O[C@H](CN)[C@@H](O)[C@H](O)[C@@H]3O)[C@@H](N)C[C@@H]2NC(=O)[C@@H](O)CN)OC[C@]1(C)O assigned_category=F

Check the results log: what was the call for CN(C)N=Nc1nc[nH]c1C(N)=O ?
T

I would be grateful if you could indicate the recorded call for O=C(O)CCNc1cc(N2CCc3ccccc3CC2)nc(-c2ccccn2)n1 .
F

Hi team, can someone confirm the assay call for COc1ccc2nc3cc(Cl)ccc3c(Nc3cc(CN4CCCC4)c(O)c(CN4CCCC4)c3)c2n1 ?
F

Per the records of this test, what outcome belongs to C=CC[N+]1([C@H]2C[C@H]3[C@@H]4CC[C@H]5C[C@H](O)[C@@H](N6CCOCC6)C[C@]5(C)[C@@H]4CC[C@]3(C)[C@H]2OC(C)=O)CCCC1 ?
F

Outcome logged for CS(=O)(=O)c1ccc(C2=C(c3ccccc3)C(=O)OC2)cc1 in this assay:
F

What is the recorded call for this compound in the test? COc1ccc(-c2cc(=O)c3c(O)cc(O[C@@H]4O[C@H](CO[C@@H]5O[C@@H](C)[C@H](O)[C@@H](O)[C@@H]5O)[C@@H](O)[C@H](O)[C@@H]4O)cc3o2)cc1O
F

Outcome? O=C(O)C1=NC(C(=O)O)CC(C=CN2c3cc(O)c(OC4OC(CO)C(O)C(O)C4O)cc3CC2C(=O)O)=C1 (configuration not stated)
F

Hi, do you know how COc1ccc2c(c1)c(C1=C(c3c[nH]c4ccccc34)C(=O)NC1=O)cn2CCCN(C)C came out in this test?
F

State the result this test recorded for CCC[C@H](N[C@@H](C)C(=O)N1[C@@H]2CCCC[C@H]2C[C@H]1C(=O)O)C(=O)OCC .
F

What call does the record list for Cc1ccc2c(c1)c1c(n2CCc2ccc(C)nc2)CCN(C)C1 ?
F

Record request — test call for CN1CCC[C@H]1CCO[C@](C)(c1ccccc1)c1ccc(Cl)cc1
F

What outcome does the record of this test show for CNC(=O)[C@H](Cc1ccccc1)NC(=O)[C@H](CC(C)C)[C@H](CSc1cccs1)C(=O)NO ?
T

Per the records of this test, what outcome belongs to CC(C)(F)C[C@H](N[C@@H](c1ccc(-c2ccc(S(C)(=O)=O)cc2)cc1)C(F)(F)F)C(=O)NC1(C#N)CC1 ?
F

---

Test: Identifying Small Molecule Inhibitors of Pancreatic Cancer Stem Cells (A278, Adherent) (AID 1259361);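 note: viability read after 48 h compound exposure; nearly all actives have a fitted effect of over 35% in size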
Conditions: series mostly up to 46.1 µM
Inconclusive results are not listed. The source made the active and inactive calls. The call rests on the fitted dose curve; in most records, active means well fitted cell-killing curve with a large enough effect; inconclusive means small, poorly fitted or top-dose-only effect; inactive means flat fitted curve, though single readings scatter.
Respond with a class label; see active, inactive

Examples from the recorded data:
compound=OCCn1cc(-c2ccc3c(c2)CCC3=NO)c(-c2ccncc2)n1 assigned_category=active
compound=Cn1cc(-c2ccc3nnc(Sc4ccc5ncccc5c4)n3n2)cn1 assigned_category=inactive
compound=CN(C)CCN(C)C(=O)c1ccc(NC(=O)Nc2ccc(-c3nc(N4CCOCC4)c4ccn(CC(F)(F)F)c4n3)cc2)cc1 assigned_category=active
compound=CC(C)n1c(C=C[C@H](O)C[C@H](O)CC(=O)O)c(-c2ccc(F)cc2)c2ccccc21 assigned_category=active
compound=C[C@@H](O[C@H]1OCCN(Cc2n[nH]c(=O)[nH]2)[C@@H]1c1ccc(F)cc1)c1cc(C(F)(F)F)cc(C(F)(F)F)c1 assigned_category=active
compound=CCNC(=O)c1noc(-c2cc(C(C)C)c(O)cc2O)c1-c1ccc(CN2CCOCC2)cc1 assigned_category=active

Call for entry CN1C(=O)C(Cc2c[nH]c3ccccc23)NC1=S (centres undefined) :
inactive

Dear all, I need the recorded test outcome for CC(C)(C)c1[nH]cnc1C=c1[nH]c(=O)c(=Cc2ccccc2)[nH]c1=O , thank you.
active

I'd appreciate the recorded outcome for COc1cccc(OC)c1-c1cc(C(=O)NC2(C(=O)O)C3CC4CC(C3)CC2C4)nn1-c1ccnc2cc(Cl)ccc12 (centres undefined) from this test.
active

---

Experiment: qHTS of pediatric cancer cell lines to identify multiple opportunities for drug repurposing: Confirmatory screen for Rh30 cells (AID 1347126); note: nearly all actives have a fitted effect of over 55% in size; note: potency is the fitted concentration of half-maximal effect
Settings: Rh30 rhabdomyosarcoma cell viability; series mostly up to 45.9 µM
Inconclusive results are not listed. Active and inactive are the calls of the source. The call rests on the fitted dose curve; in most records, active means well fitted cell-killing curve with a large enough effect; inconclusive means small, poorly fitted or top-dose-only effect, or effect the other way; inactive means no such curve, though single readings can be large or run the other way.
Quantity Kind: Potency

Use the examples below as a reference point.
compound=C[C@H](c1ccc(F)cc1CCCC(=O)O)N(c1cc(F)ccc1F)S(=O)(=O)c1ccc(Cl)cc1 quantity_kind=Potency reported_result=inactive
compound=COc1cc(CNC(=O)CCCCC=CC(C)C)ccc1O quantity_kind=Potency reported_result=inactive
compound="CC1(C)CC(=O)c2c(C(F)(F)F)nn(-c3ccc(C(N)=O)c(NC4CCC(O)CC4)c3)c2C1 (centres undefined)" quantity_kind=Potency reported_result="369 nM (active)"
compound=NC(N)=Nc1nc(CSCCC(N)=NS(N)(=O)=O)cs1 quantity_kind=Potency reported_result=inactive
compound=CCN(CCO)CCCOc1ccc2c(Nc3cc(CC(=O)Nc4cccc(F)c4)[nH]n3)ncnc2c1 quantity_kind=Potency reported_result=inactive
compound=CCNC(=O)c1noc(-c2cc(C(C)C)c(O)cc2O)c1-c1ccc(CN2CCOCC2)cc1 quantity_kind=Potency reported_result="73.7 nM (active)"
compound=CON(C)C(=O)N1N=C(c2cc(F)ccc2F)S[C@]1(CCCN)c1ccccc1 quantity_kind=Potency reported_result=inactive
compound=CC(C)CN(C[C@H](O)[C@H](Cc1ccccc1)NC(=O)O[C@H]1CCOC1)S(=O)(=O)c1ccc(N)cc1 quantity_kind=Potency reported_result=inactive

Now, please, on to the next compound.
Return reported Potency; argument: Nc1ccc(-c2ccc3ncc4ccc(=O)n(-c5cccc(C(F)(F)F)c5)c4c3c2)cn1
329 nM (active)

---

System: CP329
Test: qHTS profiling for inhibitors of Plasmodium falciparum proliferation (AID 504749); note: nearly all actives have a fitted effect of over 60% in size
Settings: P. falciparum in erythrocytes, SYBR Green DNA, 72 h; series mostly up to 28.7 µM
Inconclusive results are not listed. The source made the active and inactive calls. The call rests on the fitted dose curve; in most records, active means well fitted inhibition curve with a large enough effect; inconclusive means small, poorly fitted or top-dose-only effect; inactive means flat fitted curve, though single readings scatter.
Pick one: yes (1) = active, no (0) = inactive

Hi, sorry to bother you, what did the test record for O=C(O)c1nc(=O)[nH]c(=O)[nH]1 ?
no (0)

Short answer needed: outcome of this test for CS(=O)(=O)c1ccc(C2=C(c3ccccc3)C(=O)OC2)cc1 ?
no (0)

What was the test verdict on CN1CCN2c3ncccc3Cc3ccccc3C2C1 (stereo unspecified) ?
no (0)

Recorded test outcome, item C=C1c2cccc(O)c2C(O)=C2C(=O)[C@@]3(O)C(O)=C(C(N)=O)C(=O)[C@@H](N(C)C)[C@@H]3[C@@H](O)[C@H]12
no (0)

Which result was noted for this compound in the test: COc1c(C)c2c(c(O)c1CC=C(C)CCC(=O)OCCN1CCOCC1)C(=O)OC2
yes (1)

How was O=C1C(CCC(O)c2ccc(F)cc2)C(c2ccc(O)cc2)N1c1ccc(F)cc1 (stereo unspecified) classified in this test?
no (0)
